assay: Area under the curve following intravenous dosing, integrated compound concentration with respect to time, tested in vivo in mice; type: ADME, organism-based; settings: mouse
Quick reference for AUC among some compounds
Give the value, in units of ng·h/mL, as a plain number.

COc1cc(C2CN=C(c3ccc(N(C)C)cc3)O2)cc(OC)c1OC (configuration not stated) : 3410

Would you kindly look at the next entry?
Query string: // lookup AUC for COc1cc(C2CN=C(c3ccc4c(ccn4C)c3)O2)cc(OC)c1OC (configuration not stated)
Result string: 5120

----------
# Vd per record follows
assay: Volume of distribution following intravenous dosing, tested in vivo in mice; assay type: ADME, organism-based; conditions: mouse, read-out: Vc
Respond with the bare value in L/kg.

COc1cc(C2CN=C(c3ccc4c(ccn4C)c3)O2)cc(OC)c1OC (centres undefined) : 1.4
COc1cc(C2OC(c3ccc(N(C)C)cc3)=NN2C(C)=O)cc(OC)c1OC (centres undefined) : 3.3
COc1cc(C2CN=C(c3ccc(N(C)C)cc3)O2)cc(OC)c1OC (centres undefined) : 3.3

Lab note: next compound to report on.
Query string: Param item = COc1cc(C2OC(c3ccc(N)c(C)c3)=NN2C(C)=O)cc(OC)c1OC (centres undefined) ; retrieve measured Vd.
Result string: 2.2

----------
// values below are reported bioavailability
assay: Oral bioavailability in mouse; assay type: ADME, organism-based; conditions: in vivo
API: value field is a number in %; no unit string.

Solved cases (2 shown):
COc1cc(C2OC(c3ccc(N(C)C)cc3)=NN2C(C)=O)cc(OC)c1OC (centres undefined) : 4.9
COc1cc(C2OC(c3ccc(N)c(C)c3)=NN2C(C)=O)cc(OC)c1OC (centres undefined) : 7

Query string: Find the recorded bioavailability belonging to COc1cc(C2CN=C(c3ccc4c(ccn4C)c3)O2)cc(OC)c1OC (centres undefined) and report it.
Result string: 35

Query string: Try this compound too: COc1cc(C2CN=C(c3ccc(N(C)C)cc3)O2)cc(OC)c1OC (centres undefined)
Result string: 49

----------
assay: Half-life following intravenous dosing, tested in vivo in mice; type: ADME, organism-based; settings: mouse
quantity-kind: half-life (h)
Kindly answer with a numeric value in h, unit omitted.

COc1cc(C2CN=C(c3ccc4c(ccn4C)c3)O2)cc(OC)c1OC (configuration not stated) : 1.9

API: the following record is the query input.
Query string: Look up half-life for this compound: COc1cc(C2CN=C(c3ccc(N(C)C)cc3)O2)cc(OC)c1OC (configuration not stated)
Result string: 0.8

----------
assay: Integrated compound concentration with respect to time following oral dosing, tested in vivo in mice; assay type: ADME, organism-based; conditions: mouse
quantity-kind: AUC (ng·h/mL)
State the answer as a number, implicitly in ng·h/mL.

These solved cases illustrate the format of a correct answer.
COc1cc(C2CN=C(c3ccc4c(ccn4C)c3)O2)cc(OC)c1OC (centres undefined) : 1780
COc1cc(C2OC(c3ccc(N(C)C)cc3)=NN2C(C)=O)cc(OC)c1OC (centres undefined) : 155
COc1cc(C2OC(c3ccc(N)c(C)c3)=NN2C(C)=O)cc(OC)c1OC (centres undefined) : 147

Now turn to the next compound.
Query string: // returns reported AUC for input COc1cc(C2CN=C(c3ccc(N(C)C)cc3)O2)cc(OC)c1OC (centres undefined)
Result string: 1660
